Where these numbers come from: ChEMBL document CHEMBL1201862

Molecular target: Peroxisome proliferator-activated receptor gamma/Nuclear receptor coactivator 1 (Homo sapiens, UniProt P37231)
Sequence (P37231 whole entry): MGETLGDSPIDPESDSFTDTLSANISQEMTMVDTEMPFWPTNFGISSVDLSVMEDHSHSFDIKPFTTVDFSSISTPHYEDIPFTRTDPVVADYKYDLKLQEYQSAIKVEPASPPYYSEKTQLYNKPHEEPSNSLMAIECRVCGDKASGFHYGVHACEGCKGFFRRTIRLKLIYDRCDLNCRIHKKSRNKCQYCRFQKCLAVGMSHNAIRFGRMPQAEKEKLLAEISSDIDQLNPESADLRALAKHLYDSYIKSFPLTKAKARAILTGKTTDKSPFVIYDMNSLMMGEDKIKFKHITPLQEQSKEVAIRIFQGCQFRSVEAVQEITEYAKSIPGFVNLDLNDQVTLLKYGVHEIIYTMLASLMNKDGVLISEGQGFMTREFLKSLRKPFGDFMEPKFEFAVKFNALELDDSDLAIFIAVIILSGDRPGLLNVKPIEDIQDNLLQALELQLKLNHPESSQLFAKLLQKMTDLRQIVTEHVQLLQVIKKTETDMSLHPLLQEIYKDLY
Sequence (Q15788 whole entry, further chain): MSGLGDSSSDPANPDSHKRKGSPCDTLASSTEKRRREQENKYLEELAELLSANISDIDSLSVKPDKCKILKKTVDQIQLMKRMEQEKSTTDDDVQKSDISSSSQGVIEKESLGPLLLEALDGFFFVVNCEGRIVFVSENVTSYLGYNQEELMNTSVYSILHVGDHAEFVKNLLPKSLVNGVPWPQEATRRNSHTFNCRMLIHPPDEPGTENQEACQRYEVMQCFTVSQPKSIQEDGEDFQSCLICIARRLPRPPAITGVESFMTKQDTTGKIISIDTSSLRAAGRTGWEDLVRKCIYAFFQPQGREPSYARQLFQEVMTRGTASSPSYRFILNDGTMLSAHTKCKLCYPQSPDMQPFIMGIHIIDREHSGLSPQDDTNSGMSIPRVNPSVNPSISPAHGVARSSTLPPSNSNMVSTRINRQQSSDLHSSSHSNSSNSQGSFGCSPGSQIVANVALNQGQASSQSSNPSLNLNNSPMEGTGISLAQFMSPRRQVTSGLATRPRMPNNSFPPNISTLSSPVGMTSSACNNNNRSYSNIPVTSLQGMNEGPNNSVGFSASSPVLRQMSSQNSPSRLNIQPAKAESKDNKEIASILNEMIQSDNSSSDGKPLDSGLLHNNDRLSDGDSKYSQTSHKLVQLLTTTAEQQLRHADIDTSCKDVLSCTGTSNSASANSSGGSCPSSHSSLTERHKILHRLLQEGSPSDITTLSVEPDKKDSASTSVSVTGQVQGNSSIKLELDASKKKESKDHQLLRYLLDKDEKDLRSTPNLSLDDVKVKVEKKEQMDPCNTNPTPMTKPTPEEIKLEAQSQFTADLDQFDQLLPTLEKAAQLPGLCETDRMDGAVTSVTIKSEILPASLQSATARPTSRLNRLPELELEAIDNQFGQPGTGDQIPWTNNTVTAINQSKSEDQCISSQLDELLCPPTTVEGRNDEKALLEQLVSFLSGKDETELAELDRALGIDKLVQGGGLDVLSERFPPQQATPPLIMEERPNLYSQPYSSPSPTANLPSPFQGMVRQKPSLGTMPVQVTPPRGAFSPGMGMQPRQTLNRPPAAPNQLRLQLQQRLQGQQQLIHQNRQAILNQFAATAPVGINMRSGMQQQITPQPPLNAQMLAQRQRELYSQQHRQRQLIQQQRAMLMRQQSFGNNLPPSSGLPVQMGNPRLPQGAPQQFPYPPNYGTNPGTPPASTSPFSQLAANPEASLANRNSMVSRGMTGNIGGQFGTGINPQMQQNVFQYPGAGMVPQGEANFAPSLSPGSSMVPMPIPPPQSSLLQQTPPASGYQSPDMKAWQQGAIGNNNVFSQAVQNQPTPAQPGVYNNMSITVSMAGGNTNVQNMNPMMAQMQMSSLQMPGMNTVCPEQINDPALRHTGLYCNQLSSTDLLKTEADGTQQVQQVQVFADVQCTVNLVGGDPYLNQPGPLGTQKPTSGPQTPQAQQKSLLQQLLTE
Assay: TR-FRET dose response biochemical High Throughput Screening assay for agonists of the steroid receptor coactivator 1 (SRC-1) recruitment by the peroxisome proliferator-activated receptor gamma (PPAR gamma): non-selective agonists. [Related pubchem assays (depositor defined):AID1300, AID1808, AID504735, AID631]
Type: protein assay
Activity calls are given as the source filed them. Cut-off read from the data, not from the text of the source: active = EC50 of 10 µM or less and inactive = more.
Respond using exactly one of the listed classes: 1 for active, -1 for inactive

These solved cases illustrate the format of a correct answer.
MOLECULE	LABEL CLASS
Cc1ccc2nc(NC(=S)NC(=O)c3ccco3)sc2c1	-1
CCn1c(=O)cc(SCC(=O)NCc2ccc(C)cc2)c2ccccc21	-1
COc1ccc2cc(C#N)c(SCC(=O)NNC(=O)Cc3ccccc3)nc2c1	-1
c1ccc(Cc2nnc(Sc3ccccc3)c3ccccc23)cc1	-1
CC(=O)C1=C(O)C(=O)N(c2nccs2)C1c1ccccc1 (stereo not drawn)	-1
COc1ccc(C(=O)C2=C(O)C(=O)N(c3nc(C)c(C)s3)C2c2ccco2)cc1 (stereo not drawn)	-1
O=C(CSc1c2c(nc3cc(Cl)ccc13)CCCC2)NCc1ccco1	-1

**Q:** Each molecule tested received a call. Report the one for `O=C(CNS(=O)(=O)c1ccc2ccccc2c1)OCC(=O)c1ccc(Br)s1` .
**A:** 1
